Reported IC50 by item:
# targetUnderTest: c-Met (h) (Homo sapiens (Human))
# Sequence (P08581 25-1390): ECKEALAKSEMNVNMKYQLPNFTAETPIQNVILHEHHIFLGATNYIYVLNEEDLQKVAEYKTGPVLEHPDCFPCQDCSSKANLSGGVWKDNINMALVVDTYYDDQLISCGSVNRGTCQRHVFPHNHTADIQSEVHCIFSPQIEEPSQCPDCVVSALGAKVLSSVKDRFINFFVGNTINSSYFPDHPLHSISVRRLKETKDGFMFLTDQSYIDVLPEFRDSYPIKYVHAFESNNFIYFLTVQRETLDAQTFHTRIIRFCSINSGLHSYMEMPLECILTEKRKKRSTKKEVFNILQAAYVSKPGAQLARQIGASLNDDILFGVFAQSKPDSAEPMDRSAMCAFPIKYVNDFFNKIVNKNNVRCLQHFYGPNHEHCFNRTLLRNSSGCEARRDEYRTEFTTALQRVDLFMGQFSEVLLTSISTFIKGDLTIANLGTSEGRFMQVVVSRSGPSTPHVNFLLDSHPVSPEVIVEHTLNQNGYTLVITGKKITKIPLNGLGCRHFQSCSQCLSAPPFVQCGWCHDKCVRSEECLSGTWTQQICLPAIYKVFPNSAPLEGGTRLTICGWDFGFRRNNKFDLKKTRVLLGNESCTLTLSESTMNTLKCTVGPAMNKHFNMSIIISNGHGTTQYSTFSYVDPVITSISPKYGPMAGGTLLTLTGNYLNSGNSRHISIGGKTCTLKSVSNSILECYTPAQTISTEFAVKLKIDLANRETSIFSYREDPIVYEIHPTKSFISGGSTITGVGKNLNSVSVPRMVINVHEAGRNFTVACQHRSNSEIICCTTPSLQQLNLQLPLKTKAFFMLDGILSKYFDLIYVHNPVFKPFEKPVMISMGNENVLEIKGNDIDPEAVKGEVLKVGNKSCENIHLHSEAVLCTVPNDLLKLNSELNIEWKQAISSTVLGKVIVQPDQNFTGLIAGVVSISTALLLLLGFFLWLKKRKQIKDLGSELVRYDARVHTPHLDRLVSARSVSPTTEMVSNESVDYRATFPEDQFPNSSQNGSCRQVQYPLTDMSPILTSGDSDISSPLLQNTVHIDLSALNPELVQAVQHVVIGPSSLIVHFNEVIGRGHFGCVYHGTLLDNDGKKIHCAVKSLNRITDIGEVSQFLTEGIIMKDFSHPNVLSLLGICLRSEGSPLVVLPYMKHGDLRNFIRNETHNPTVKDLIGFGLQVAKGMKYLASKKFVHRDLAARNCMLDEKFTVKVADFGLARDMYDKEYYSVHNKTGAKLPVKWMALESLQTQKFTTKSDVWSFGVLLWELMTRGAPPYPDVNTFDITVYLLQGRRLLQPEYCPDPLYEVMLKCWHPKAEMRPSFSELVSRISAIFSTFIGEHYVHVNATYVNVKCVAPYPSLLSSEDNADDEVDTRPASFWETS
# protocol: c-Met (h) kinase assay (33P-ATP filter, Millipore)
# Format: biochemical
Could you give the number and then its unit, please?

Completed entries (count: 3):
Cc1c(C(=O)Nc2ccc(Oc3ccnc4cc(OCC(C)(C)O)ccc34)cc2)c(=O)n(-c2ccccc2)n1C [Example 9] :: 13 nM
Cc1c(C(=O)Nc2ccc(Oc3ccnc4cc(OC[C@@H](C)O)ccc34)c(F)c2)c(=O)n(-c2ccccc2)n1C [Example 2] :: 7 nM
Cc1c(C(=O)Nc2ccc(Oc3ccnc4cc(OCC(C)(C)O)ccc34)c(F)c2)c(=O)n(-c2ccccc2)n1C [Example 1] :: 19 nM

Name the reported IC50 value associated with the compound Cc1c(C(=O)Nc2ccc(Oc3ccnc4cc(OC[C@H](C)O)ccc34)cc2)c(=O)n(-c2ccccc2)n1C [Example 12]
13 nM

The values you see were collected from patent US9133162B2.
